Cited source: patent EP1660440B1

Recorded measurements of % of Baclofen Released, one per entry
conditionNotes: human, plasma, 1 h, 2 µM
Expressed in %, but write only the number.

Worked examples follow.
If you can, please state the reported % of Baclofen Released value of CC(C)CC(=O)OCOC(=O)NC[C@H](CC(=O)[O-])c1ccc(Cl)cc1.[Na+] .
11

What about this compound? CC(C)C(=O)OC(OC(=O)NC[C@H](CC(=O)[O-])c1ccc(Cl)cc1)C(C)C.[Na+] (some centres unmarked)
4

What do you get for O=C([O-])C[C@@H](CNC(=O)OCOC(=O)c1ccccc1)c1ccc(Cl)cc1.[Na+] ?
5

Others:
Which % of Baclofen Released value belongs to CC(=O)OCOC(=O)NC[C@H](CC(=O)[O-])c1ccc(Cl)cc1.[Na+] ?
26

What do you have for CC(C)C(=O)OC(OC(=O)NC[C@H](CC(=O)[O-])c1ccc(Cl)cc1)C1CCCCC1.[Na+] (some centres unmarked) ?
4

Next up: CC(=O)OC(OC(=O)NC[C@H](CC(=O)[O-])c1ccc(Cl)cc1)C(C)C.[Na+] (some centres unmarked)
3

Further, for CC(C)(C)C(=O)OCOC(=O)NC[C@H](CC(=O)[O-])c1ccc(Cl)cc1.[Na+] ?
9

Follow-up entry: CC(OC(=O)NC[C@H](CC(=O)[O-])c1ccc(Cl)cc1)OC(=O)C(C)C.[Na+] (some centres unmarked)
4

Next compound: CCCC(=O)OC(OC(=O)NC[C@H](CC(=O)[O-])c1ccc(Cl)cc1)C1CCCCC1.[Na+] (some centres unmarked)
4
